Test system: TGF-beta-induced phosphorylation of Smad2 (Ser465/467) and Smad3 (Ser423/425) in Mv1-Lu cells
Experiment: Inhibition of Smad2/3 phosphorylation in Mv1Lu cells (PathScan Phospho-Smad2 ELISA)
Format: cell-based, mink Mustela vison
Conditions: Neogale vison, Mv1-Lu cells, TGF-beta 1 5 ng/ml, Phospho-Smad2/3 ELISA, read-out: TβR activity (Example 51)
pIC50: −log10 of the molar value.
Measured pIC50, listed per entry for reference.
Metric Name: pIC50

| Molecule | Metric Name | Test Value |
| --- | --- | --- |
| Fc1ccc(Cl)cc1-c1cc(-c2cc(OCCN3CCOCC3)nc3cnccc23)c2cccnc2n1 [Compound 112] | pIC50 | > 6.00 |
| Nc1cc2c(-c3cc(-c4cc(Cl)ccc4F)nc4ncccc34)cccc2cn1 [Compound 49] | pIC50 | < 5.00 |
| O=c1c2cnccc2c(-c2cc(-c3ccccc3F)nc3ncccc23)cn1CCO [Compound 67] | pIC50 | 5.00 to 6.00 |
| O=c1cc(-c2cc(-c3cc(Cl)ccc3F)nc3ncccc23)c2ccncc2n1CCN1CCOCC1 [Compound 110] | pIC50 | < 5.00 |
| Cc1occc1-c1cc(-c2c[nH]c3cnccc23)c2cccnc2n1 [Compound 108] | pIC50 | > 6.00 |
| O=c1[nH]cc(-c2cc(-c3cc(Cl)ccc3F)nc3ncccc23)c2ccncc12 [Compound 89] | pIC50 | > 6.00 |
| Nc1ccc(-c2cc(-c3ccccc3F)nc3ncccc23)c2ccncc12 [Compound 41] | pIC50 | > 6.00 |
| Nc1ncnc2c(-c3cc(-c4ccccc4F)nc4ncccc34)nccc12 [Compound 36] | pIC50 | < 5.00 |
| Nc1nccc2c(-c3cc(-c4cc(Cl)ccc4F)nc4ncccc34)coc12 [Compound 13] | pIC50 | > 6.00 |
| CCN(CC)CCOc1ncc(-c2cc(-c3cc(Cl)ccc3F)nc3ncccc23)c2ccncc12 [Compound 98] | pIC50 | > 6.00 |
| Nc1ccc(-c2cc(-c3cc(F)ccc3F)nc3ncccc23)c2ccncc12 [Compound 38] | pIC50 | > 6.00 |
| Cc1cccc(-c2cc(-c3cccc4c(N)nccc34)c3cccnc3n2)n1 [Compound 6] | pIC50 | > 6.00 |
| O=c1c2cnccc2c(-c2cc(-c3cc(Cl)ccc3F)nc3ncccc23)cn1CCO [Compound 68] | pIC50 | > 6.00 |
| COc1nccc2c(-c3cc(-c4ccccc4F)nc4ncccc34)nccc12 [Compound 40] | pIC50 | < 5.00 |
| Fc1ccc(Cl)cc1-c1cc(-c2ccc(Cl)c3cnccc23)c2cccnc2n1 [Compound 83] | pIC50 | > 6.00 |
| CCN(CC)CCOc1ccc(-c2cc(-c3cc(F)ccc3F)nc3ncccc23)c2ccncc12 [Compound 103] | pIC50 | > 6.00 |
| Nc1ccc2c(-c3nccc4c(N)nccc34)cc(-c3ccccc3F)nc2n1 [Compound 114] | pIC50 | > 6.00 |

---

A set of molecules tested on GST-ALK5 (TGF-beta receptor kinase) (Homo sapiens), with measured IC50:

| Structure As Smiles | IC50 |
| --- | --- |
| Cc1occc1-c1cc(-c2c[nH]c3cnccc23)c2cccnc2n1 | < 1000 nM |
| COc1nccc2c(-c3cc(-c4ccccc4F)nc4ncccc34)nccc12 | > 10000 nM |
| Fc1ccccc1-c1cc(-c2nccc3cnccc23)c2cccnc2n1 | 1000 to 10000 nM |
| O=c1[nH]cc(-c2cc(-c3cc(F)ccc3F)nc3ncccc23)c2ccncc12 | < 1000 nM |
| Cn1cc(-c2cnc3nc(-c4ccccc4F)cc(-c4nccc5c(N)nccc45)c3c2)cn1 | > 10000 nM |
| O=c1c2cnccc2c(-c2cc(-c3cc(Cl)ccc3F)nc3ncccc23)cn1CCO | < 1000 nM |
| Fc1ccc(Cl)cc1-c1cc(-c2ccc(Cl)c3cnccc23)c2cccnc2n1 | < 1000 nM |
| Nc1cc2cnccc2c(-c2cc(-c3ccccc3F)nc3ncccc23)n1 | < 1000 nM |
| CCN(CC)CCn1cc(-c2cc(-c3cc(Cl)ccc3F)nc3ncccc23)c2ccncc2c1=O | 1000 to 10000 nM |
